Test system: SHI-1
Details: 72 h
Reported Endpoint: IC50 (cell viability)

Provide IC50 (cell viability) value for the following molecule: "O=C(NNc1ccccc1)c1ccncc1" > 10 µM

Provide IC50 (cell viability) value for the following molecule: NCCCC(N)(C(=O)O)C(F)F (stereo not drawn) > 10 µM

Provide IC50 (cell viability) value for the following molecule: "Oc1ccc(Nc2nc(-c3ccc(Cl)cc3)cs2)cc1" > 10 µM

====

Test system: Mono-Mac-6
Test: cell viability (% survival relative to DMSO control, bortezomib = 0%); higher = less cytotoxic
Details: 1 nM; 72 h
What cell viability was measured for each of the following?
Give your result as the value with the unit written after it.

Provide cell viability value for the following compound: "CC(C)c1onc(-c2c(Cl)cccc2Cl)c1COc1ccc(/C=C/c2cccc(C(=O)O)c2)c(Cl)c1" 104%

Provide cell viability value for the following compound: "O=c1cc(-c2ccccc2)oc2cc(O)c(O)c(O)c12" 103%

Provide cell viability value for the following compound: "O=C1c2cc([N+](=O)[O-])ccc2-n2c1nc1ccccc1c2=O" 86.3%
